test system: B6C3F1 mice, Lewis lung carcinoma iv, survival T/C; experiment: NCI In Vivo Anticancer Drug Screen. Data for tumor model Lewis Lung Carcinoma (intravenous) in B6C3F1 mice; settings: endpoint: median survival time; dose: 3.12 mg/kg/injection; schedule: Q01DX009 (ip); vehicle: Klucel (hydroxypropylcellulose) (HPC); higher = longer survival
Toxic doses and inconclusive results are not listed.
Provide the reported T/C of each item.

For COc1ccc(Cl)[n+]([O-])n1 on B6C3F1 mice, Lewis lung carcinoma iv, survival T/C, measured T/C was 96 % of control

For C=C(C)[C@@H]1CCc2c(O)c(O)c(=O)cc(C)c2C1 on B6C3F1 mice, Lewis lung carcinoma iv, survival T/C, measured T/C was 90 % of control

For NC(CSC(c1ccccc1)(c1ccccc1)c1ccccc1)C(=O)O (stereo unspecified) on B6C3F1 mice, Lewis lung carcinoma iv, survival T/C, measured T/C was 116 % of control

For CCCC(=O)OCc1cc(=O)n(C)c2c3c4c(cc12)c(C)cc(=O)n4CO3 on B6C3F1 mice, Lewis lung carcinoma iv, survival T/C, measured T/C was 91 % of control

For O=NN(CCF)C(=O)NC1CCCCC1 on B6C3F1 mice, Lewis lung carcinoma iv, survival T/C, measured T/C was 107 % of control

For CC(C)CC(=O)NC(C(=O)NC(C(=O)NC(CC(C)C)C(O)CC(=O)NC(C)C(=O)NC(CC(C)C)C(O)CC(=O)O)C(C)C)C(C)C (stereo unspecified) on B6C3F1 mice, Lewis lung carcinoma iv, survival T/C, measured T/C was 95 % of control

* * *

test system: B6C3F1 mice, Lewis lung carcinoma iv, survival T/C; test: NCI In Vivo Anticancer Drug Screen. Data for tumor model Lewis Lung Carcinoma (intravenous) in B6C3F1 mice; conditions: endpoint: median survival time; dose: 50.0 mg/kg/injection; schedule: Q01DX009 (ip); vehicle: saline; higher = longer survival
Toxic doses and inconclusive results are not listed.
measured_attribute: T/C

For N=c1ccn2c(n1)OC1C(O)C(CO)OC12 (centres undefined) the compound record lists T/C as 102 % of control

For CS(=O)(=O)CS(=O)(=O)OCCCl the compound record lists T/C as 284 % of control

For O=C(O)C1CSCN1 (centres undefined) the compound record lists T/C as 101 % of control

For CCC1OC(OC)C=CC1=O (centres undefined) the compound record lists T/C as 97 % of control

For Cn1cnc([N+](=O)[O-])c1SCC(=O)O the compound record lists T/C as 103 % of control

For O=C(NO)c1ccc(O)c(O)c1 the compound record lists T/C as 98 % of control

For CCN(CC)CCOCCO the compound record lists T/C as 99 % of control

For NC(=O)NO the compound record lists T/C as 94 % of control

For COc1cc(C2c3cc4c(cc3[C@@H](OC3OC5CO[C@@H](C)OC5C(O)C3O)[C@H]3COC(=O)C23)OCO4)cc(OC)c1OC (some centres undefined) the compound record lists T/C as 117 % of control

For CC(=O)OCC1OC(n2ccc(N)nc2=O)C(OC(C)=O)C1OC(C)=O (centres undefined) the compound record lists T/C as 101 % of control

For c1csc(C[N+]23CN4CN(CN(C4)C2)C3)c1 the compound record lists T/C as 96 % of control

For CC(=O)Oc1c(C)[nH]ccc1=O the compound record lists T/C as 96 % of control

For O=C1CCC(=O)N1CO the compound record lists T/C as 98 % of control

For Brc1c(NC2=NCCN2)ccc2nccnc12 the compound record lists T/C as 112 % of control

For CN(C)[C@@H]1C(=O)C(C(N)=O)=C(O)[C@@]2(O)C(=O)C3=C(O)c4c(O)ccc(Cl)c4[C@@](C)(O)[C@H]3C[C@@H]12 the compound record lists T/C as 109 % of control

For O=P1(N(CCCl)CCCl)NCCCO1 (centres undefined) the compound record lists T/C as 337 % of control

For Oc1ccc(CCl)c2cccnc12 the compound record lists T/C as 103 % of control

For COc1cc2c(ccc3c4cc(OC)c(OC)cc4c[n+](C)c23)cc1O the compound record lists T/C as 113 % of control

For CCCC(=O)O the compound record lists T/C as 114 % of control
